target: T1, Biotinylated recombinant human IL-6 (human, UniProt P05231 30-212, biotinylated (sites not given)); test: SPR (Biacore), IL-6 on chip
T1 construct: In the cell bioassay IL-6 (0.5 nM) was used in solution; also called Interleukin-6; IL-6-Biotin
pKd: −log10 of the molar value.
Item-by-item account of pKd

# Binder, pKd
data = [
    ("Ac-SVRDLLRRMCVIVG-NH2 [Peptide 66]", 6.55),
    ("Ac-FSVRDLLRRMCHIVG-NH2 [Peptide 61]", 6.84),
    ("Ac-AVRDLLRRMCHIVG-NH2 [Peptide 62]", 6.28),
    ("Ac-FSFRDLLRMMCHIVG-NH2 [Peptide 80]", 6.60),
    ("Ac-SVRDLLRRMKVIVG-NH2 [Peptide 73]", 5.95),
    ("Ac-ATIRDLIRMMCHIVG-NH2 (also called peptide variant 51) [Peptide 51]", 6.89),
    ("Ac-SVRDLLRRMKHIVG-NH2 [Peptide 65]", 6.82),
    ("Ac-FSFRDLLRMMKVIVG-NH2 [Peptide 81]", 5.90),
    ("Ac-FAFRDLIRMMCVIVG-NH2 [Peptide 78]", 5.83),
    ("Ac-SIRDLLRRMCHIVG-NH2 [Peptide 56]", 6.52),
    ("Ac-FSVRDLIRMMKVCVG-NH2 [Peptide 87]", 7.33),
    ("NQQLIEEIIQILHKIFEIL (published peptide (Kobayashi et al. 2011) synthesized by the inventors; whether its termini were protected is not clear) [Control peptide CA11]", 4.29),
    ("Ac-SFRDLLRRMCHIVG-NH2 [Peptide 63]", 6.79),
    ("Ac-TVRDLLRRMCHIVG-NH2 [Peptide 55]", 6.65),
    ("Ac-FAFRDLIRMMKVIVG-NH2 [Peptide 76]", 5.89),
    ("Ac-TIRDLIRMMKVCVG-NH2 [Peptide 100]", 7.23),
]

The values you see were collected from patent US20250277208A1.
